target system: unphosphorylated VEGF-R2Δ50 (FLVK) (Homo sapiens, UniProt P35968, DEL940-989/E990V)
Construct: VEGF-R2Δ50 contains residues 806–939 and 990–1171; made in house; host or cells: baculovirus/insect cell system
Sequence (P35968 with tags, fused parts or gaps DEL940-989/E990V limits assumed): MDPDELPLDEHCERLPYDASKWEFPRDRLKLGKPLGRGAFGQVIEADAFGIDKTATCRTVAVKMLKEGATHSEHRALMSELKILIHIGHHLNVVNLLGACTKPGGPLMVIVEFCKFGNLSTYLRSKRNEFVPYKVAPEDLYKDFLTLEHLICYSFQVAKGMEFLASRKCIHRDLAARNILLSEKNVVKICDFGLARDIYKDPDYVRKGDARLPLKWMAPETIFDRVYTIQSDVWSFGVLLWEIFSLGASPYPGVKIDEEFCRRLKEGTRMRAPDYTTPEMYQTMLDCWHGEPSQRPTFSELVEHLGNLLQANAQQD
measurement notes: VEGF-R2 coupled spectrophotometric assay, unphosphorylated VEGF-R2Δ50 (FLVK)
Assay type: biochemical
recorded conditions: 50 nM compound; unphosphorylated VEGF-R2Δ50; read-out: FLVK (% inh @ 50 nM)
property label: inhibition at 0.05 µM (%)

Observe how each entry below is paired with its result.
CNC(=O)c1c(C)n(C)c2cc(Oc3ccnc4cc(C(=O)N5CCC[C@H]5CO)sc34)ccc12 = 46
CNC(=O)c1c(C)sc2cc(Oc3ccnc4cc(C(=O)N5C[C@H](OC)[C@H](OC)C5)sc34)ccc12 = 73
CO[C@@H]1CCN(C(=O)c2cc3nccc(Oc4ccc5c(C(=O)NCCCO)c(C)sc5c4)c3s2)C1 = 82
CNC(=O)c1c(C)n(C)c2cc(Oc3ccnc4cc(-c5cccc(OC)n5)sc34)ccc12 = 67
Cc1c(C(=O)NC2CC2)c2ccc(Oc3ccnc4cc(C(=O)N5CC[C@@H](O)C5)sc34)cc2n1C = 93
CNC(=O)c1c(C)sc2cc(Oc3ccnc4cc(C(=O)N5CC(O)C5)sc34)ccc12 = 83
Cc1oc2cc(Oc3ccnc4ccsc34)ccc2c1C(=O)Nc1nnc(-c2ccccc2)s1 = 98
CO[C@@H]1CCN(C(=O)c2cc3nccc(Oc4ccc5c(C(=O)NCC6CC6)c(C)sc5c4)c3s2)C1 = 95
COC[C@@H]1CCCN1C(=O)c1cc2nccc(Oc3ccc4c(C(=O)NCC5CC5)c(C)sc4c3)c2s1 = 80

[P] Cc1cc(NC(=O)c2c(C)oc3cc(Oc4ccnc5ccsc45)ccc23)n[nH]1
[Q] CCC(=O)c1cc2nccc(Oc3ccc4c(C(=O)NCCCN5CCOCC5)c(C)n(C)c4c3)c2s1
Ask: Would you mind telling me which has the lower recorded inhibition at 0.05 µM between P and Q ? Pick one; state its label.
Result: Q
(Q: 37%, P: 96%)
